Give pre-steady-state target cleavage rate for every item shown.
Test system: MIWI (PIWIL1) piRISC loaded with piRNA #1 (30 nt);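 note: 1 nM active piRISC with 0.1 nM target library at 33 °C single turnover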
Assay: pre-steady-state target cleavage rate (min^-1); MIWI and MILI are mouse PIWI proteins and EfPiwi is from a freshwater sponge; tags in brackets are library labels; higher = faster piRNA-guided slicing of the target;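 note: 1 nM active piRISC with 0.1 nM target library at 33 °C single turnover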
Details: guide: piRNA #1 5'p-UGAGGUAGUAGGUUGUAUAGUAUCCAGAGG; auxiliary factor: 500 nM mouse GTSF1
In all, about 6,200 sequences were measured (“pre-steady-state target cleavage rate”: median about 0.29, highest 2% from about 2 on). The entries come from a sample that favours the highest values as a whole.
// no unit string in output, number only

Tested on MIWI (PIWIL1) piRISC loaded with piRNA #1 (30 nt): GCUCUGGAUAGUAUACUACCUACUACCUCA . Observed pre-steady-state target cleavage rate: 0.858

Observed pre-steady-state target cleavage rate on MIWI (PIWIL1) piRISC loaded with piRNA #1 (30 nt), entry GGUCUGGCAUACUAUACAACCUACUACCUCA , equals 1.86

Field pre-steady-state target cleavage rate (system: MIWI (PIWIL1) piRISC loaded with piRNA #1 (30 nt)) for entry GGUCUGGUACUAUACAACCUACUACCUCA = 1.73

Record for GGAGACGAUACUAUACAACCUACUACCGUCA under target or system MIWI (PIWIL1) piRISC loaded with piRNA #1 (30 nt): pre-steady-state target cleavage rate reported as 0.443

Lab note: sequence GGACUGGAUAACUAUACAACCUACUACCUCA tested on MIWI (PIWIL1) piRISC loaded with piRNA #1 (30 nt); recorded pre-steady-state target cleavage rate was 1.11

Per the reported MIWI (PIWIL1) piRISC loaded with piRNA #1 (30 nt) data, GGAGACCUUAGUAUACAACCUACAACCUCA has pre-steady-state target cleavage rate of 0.0975

Assay MIWI (PIWIL1) piRISC loaded with piRNA #1 (30 nt), sample CCACUGGAAACUAUACAACCUACUACCUCA , pre-steady-state target cleavage rate read: 2.06

Record for CCUAUGGAUACUAUACAACCUACUACCUCA under target or system MIWI (PIWIL1) piRISC loaded with piRNA #1 (30 nt): pre-steady-state target cleavage rate reported as 2.15

Measured on MIWI (PIWIL1) piRISC loaded with piRNA #1 (30 nt), GGUCUGGAAACUAUACAACCUACUACCACA has a documented pre-steady-state target cleavage rate of 0.461

Observed pre-steady-state target cleavage rate, MIWI (PIWIL1) piRISC loaded with piRNA #1 (30 nt), CCUCUGGAUACUAUACAACCUACUACCUAA : 1.9

Record GGAGACCAUACAAUACAACCUACUAGCUCA ; system MIWI (PIWIL1) piRISC loaded with piRNA #1 (30 nt); pre-steady-state target cleavage rate = 0.486

Response field pre-steady-state target cleavage rate (MIWI (PIWIL1) piRISC loaded with piRNA #1 (30 nt)) for item GGACUGGAUACUAUACCACCUACUACCUCA : 1.17

MIWI (PIWIL1) piRISC loaded with piRNA #1 (30 nt) data for GGUCUGGAUAUUAUACAACCUACUACCUCA ; its pre-steady-state target cleavage rate: 1.98

Considering GCUCAGGAAACUAUACAACCUACUACCUCA , its pre-steady-state target cleavage rate with MIWI (PIWIL1) piRISC loaded with piRNA #1 (30 nt) was recorded as 1.78

// returns pre-steady-state target cleavage rate for GGAGUGCAUACUAUACAACCUACUACGUCA with MIWI (PIWIL1) piRISC loaded with piRNA #1 (30 nt); value = 0.629

Item: GCUCUGGAUAUAUACAACCUACUACCUCA | System: MIWI (PIWIL1) piRISC loaded with piRNA #1 (30 nt) | pre-steady-state target cleavage rate: 1.62

Summary line: GCUCACCAUACUAUACAACCUACUACCUCA , MIWI (PIWIL1) piRISC loaded with piRNA #1 (30 nt), reported pre-steady-state target cleavage rate = 1.87

# GCUCUGGAUAGUAUACAACCUACUACCUGA with MIWI (PIWIL1) piRISC loaded with piRNA #1 (30 nt): pre-steady-state target cleavage rate is 0.324

Reported pre-steady-state target cleavage rate (MIWI (PIWIL1) piRISC loaded with piRNA #1 (30 nt)) for entry CCUCUGGCAUACUAUACAACCUACUACCUCA is 2.31

GGAGACCUAACUAUACAACCUACUACCAGA on MIWI (PIWIL1) piRISC loaded with piRNA #1 (30 nt) gives pre-steady-state target cleavage rate = 0.385

// pre-steady-state target cleavage rate (MIWI (PIWIL1) piRISC loaded with piRNA #1 (30 nt)) for GGAGACCAUACUAUUCAACCUACUACCUGA = 0.64

Field pre-steady-state target cleavage rate (system: MIWI (PIWIL1) piRISC loaded with piRNA #1 (30 nt)) for entry GGAGUGGAUACUAUACAACCUACAACCUCA = 0.314

Known value: MIWI (PIWIL1) piRISC loaded with piRNA #1 (30 nt) pre-steady-state target cleavage rate of the sequence GCUCUGGAUACUAUCACAACCUACUACCUCA equals 1.62

Reported MIWI (PIWIL1) piRISC loaded with piRNA #1 (30 nt) pre-steady-state target cleavage rate for item GGUCUGGCUACUAUACAACCUACUACCUCA was 1.99

Sample GGAGACGAUACUAUACUAGCUACUACCUCA , system: MIWI (PIWIL1) piRISC loaded with piRNA #1 (30 nt). Its pre-steady-state target cleavage rate is 0.579

# GCUCUGGAUACAUAUACAACCUACUACCUCA with MIWI (PIWIL1) piRISC loaded with piRNA #1 (30 nt): pre-steady-state target cleavage rate is 1.54

Reported MIWI (PIWIL1) piRISC loaded with piRNA #1 (30 nt) pre-steady-state target cleavage rate for item CCUCUGGAUACUAUACAACCUACUACCUCC [g2:g30:cont:t1C] was 2.18

The sequence GCUCAUGGAUACUAUACAACCUACUACCUCA , when measured on MIWI (PIWIL1) piRISC loaded with piRNA #1 (30 nt), yielded pre-steady-state target cleavage rate of 1.98

pre-steady-state target cleavage rate of GCUCUGGAUAUUAUACAACCUACUACCUCA , assay on MIWI (PIWIL1) piRISC loaded with piRNA #1 (30 nt), is 2.06

The sequence CCUCAGGAAACUAUACAACCUACUACCUCA , when measured on MIWI (PIWIL1) piRISC loaded with piRNA #1 (30 nt), yielded pre-steady-state target cleavage rate of 2.04

Bench note, MIWI (PIWIL1) piRISC loaded with piRNA #1 (30 nt): CCUCUGGAUAUUAUACAACCUACUACCUCA , pre-steady-state target cleavage rate reads 2.15

Item GGAGAGGAAACUAUACAACGUACUACCUCA ; assay system MIWI (PIWIL1) piRISC loaded with piRNA #1 (30 nt); pre-steady-state target cleavage rate reported as 0.27

pre-steady-state target cleavage rate for MIWI (PIWIL1) piRISC loaded with piRNA #1 (30 nt) with input CCUCUGGAUACUAUAGAACCUACUACCACA equals 0.372

GGACUGGCAUACUAUACAACCUACUACCUCA tested on MIWI (PIWIL1) piRISC loaded with piRNA #1 (30 nt) gave pre-steady-state target cleavage rate: 1.68

The reported MIWI (PIWIL1) piRISC loaded with piRNA #1 (30 nt) pre-steady-state target cleavage rate of GGACUGGAAACUAUACAACCUACUACCUCA is 1.44

// pre-steady-state target cleavage rate (MIWI (PIWIL1) piRISC loaded with piRNA #1 (30 nt)) for GCUCUCGAUACUAUACAACCUACUACGUCA = 1.24

Record GGUCAUGGAUACUAUACAACCUACUACCUCA has MIWI (PIWIL1) piRISC loaded with piRNA #1 (30 nt) pre-steady-state target cleavage rate equal to 1.85

// pre-steady-state target cleavage rate (MIWI (PIWIL1) piRISC loaded with piRNA #1 (30 nt)) for GGAGACCUAACUAUAGAACCUACUACCUGA = 0.188

Measured pre-steady-state target cleavage rate (MIWI (PIWIL1) piRISC loaded with piRNA #1 (30 nt)), entry GGUAUGGAUACUAUACAACCUACUACCUCA : 1.88

The sequence GCUCUGGAUACUACACAACCUACUACCUCA , when measured on MIWI (PIWIL1) piRISC loaded with piRNA #1 (30 nt), yielded pre-steady-state target cleavage rate of 1.89

pre-steady-state target cleavage rate for MIWI (PIWIL1) piRISC loaded with piRNA #1 (30 nt) with input CCUCUGGAUACUAUACAACCUACUACCUACA equals 1.79

Tested on MIWI (PIWIL1) piRISC loaded with piRNA #1 (30 nt), the item GCUCUGGAAACUAUACAACCUACUACCACA showed pre-steady-state target cleavage rate equal to 1.42

Per the reported MIWI (PIWIL1) piRISC loaded with piRNA #1 (30 nt) data, GGAGACCUUACUAUACAACCUACCACCUCA has pre-steady-state target cleavage rate of 0.847

Field pre-steady-state target cleavage rate (system: MIWI (PIWIL1) piRISC loaded with piRNA #1 (30 nt)) for entry CCUCUGGAUACUAUACAACCUACUACCUA = 1.52

Reported MIWI (PIWIL1) piRISC loaded with piRNA #1 (30 nt) pre-steady-state target cleavage rate for item GGAGACCAUACUAAUACAACCUACUACCUCA was 0.978

Bench note, MIWI (PIWIL1) piRISC loaded with piRNA #1 (30 nt): entry CCUCAUGGAUACUAUACAACCUACUACCUCA , its pre-steady-state target cleavage rate = 2.31

The value of pre-steady-state target cleavage rate recorded for CCUCACCAUACUAUACAACCUACUACCUCA when tested on MIWI (PIWIL1) piRISC loaded with piRNA #1 (30 nt) reads 2.03

MIWI (PIWIL1) piRISC loaded with piRNA #1 (30 nt) data for GGAGUCCAUACUAUACAACCUACUACCUCA ; its pre-steady-state target cleavage rate: 1.63

Summary: GGAGUGGAUAGUAUACAACCUACUAGCUCA , MIWI (PIWIL1) piRISC loaded with piRNA #1 (30 nt), pre-steady-state target cleavage rate = 0.0218

Lab entry: MIWI (PIWIL1) piRISC loaded with piRNA #1 (30 nt) assay, sequence GGAGACCUAUCUAAACAACCUACAACCUCA , pre-steady-state target cleavage rate = 0.00335

Tested on MIWI (PIWIL1) piRISC loaded with piRNA #1 (30 nt): GGAGUGGAUACUAUACCAACCUACUACCUCA . Observed pre-steady-state target cleavage rate: 0.0192

Entry GGAGACCUUACUAUUCAACCUAGUACCUCA ; assay system MIWI (PIWIL1) piRISC loaded with piRNA #1 (30 nt); pre-steady-state target cleavage rate recorded at 0.395

Item GGACUGGAUACUAUACAACCUACGUACCUCA ; assay system MIWI (PIWIL1) piRISC loaded with piRNA #1 (30 nt); pre-steady-state target cleavage rate reported as 0.656

Entry GGAGUGGAUACUAUACAACCUACUAACCUCA ; assay system MIWI (PIWIL1) piRISC loaded with piRNA #1 (30 nt); pre-steady-state target cleavage rate recorded at 0.901
